# STUDY_TARGET: Follistatin (Homo sapiens) (UniProt P19883)
# Sequence (P19883 whole entry, looked up): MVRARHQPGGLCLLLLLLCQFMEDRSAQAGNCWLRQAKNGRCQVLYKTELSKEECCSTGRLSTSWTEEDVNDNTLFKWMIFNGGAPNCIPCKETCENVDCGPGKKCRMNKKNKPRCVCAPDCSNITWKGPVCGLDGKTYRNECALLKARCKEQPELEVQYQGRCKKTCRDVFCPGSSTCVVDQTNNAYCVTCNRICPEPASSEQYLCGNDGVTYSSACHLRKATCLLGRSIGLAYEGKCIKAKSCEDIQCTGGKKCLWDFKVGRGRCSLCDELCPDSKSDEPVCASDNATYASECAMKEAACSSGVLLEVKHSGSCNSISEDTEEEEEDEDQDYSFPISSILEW
# ASSAY: follistatin binders on small-molecule microarrays, primary screen, biochemical, small-molecule microarray, 635/667 nm fluorescence (AID 1132)
# CONDITION_CONTEXT: FST binding, 635 nm fluorescence, higher = more signal
MEASURE: composite z-score
Give the figure by itself; no unit, no explanation.

{"columns": ["SMILES_INPUT", "MEASURE", "OBSERVED"],
 "data": [
  ["COC(=O)[C@@]1(Cc2ccc(OC)cc2)[C@H]2c3cc(C(=O)N4CCCC4)n(CCc4c[nH]c5cc(F)ccc45)c3C[C@H]2CN1C(=O)c1ccccc1", "composite z-score", 1.23],
  ["[N-]=[N+]=NCc1ccccc1C[C@]1(C(=O)O)N=C(c2ccc(OCCCO)cc2)O[C@H]1c1ccccc1CN=[N+]=[N-]", "composite z-score", 0.879],
  ["C=CC[C@@H](OC(=O)Nc1ccc(OC)cc1)c1ccc(O)c2ccccc12", "composite z-score", 1.39]
]}

Looking up Cc1ccc(F)cc1S(=O)(=O)N[C@@H]1CCN(Cc2ccc(-c3ccccc3)cc2)C1 , I found its composite z-score recorded as 0.646
